biological target: novel L-glutamic acid oxidase (Streptomyces sp, UniProt Q8L3C7); assay: Effects of various additives on the activity of the novel enzyme; assay type: biochemical, Streptomyces sp. X-119-6; design: from the cultured product of an actinomycete newly isolated from a soil sample; made in house; host or cells: cultured product of the natural (non-recombinant) actinomycete strain, purified; conditions: additive 1 mM, pH 7.4, no addition = 100

| compound | Relative activity |
| --- | --- |
| O=C(O)c1cc[c]([Hg][Cl])cc1 [PCMB, pchloromercuribenzoate] | 55.6 |
| [Cl][Ni][Cl] | 96.5 |
| O=S(=O)([O-])[O-].[Zn+2] | 90.3 |
| [F-].[Na+] | 107.6 |
| [Cl-].[Cl-].[Sr+2] | 97.2 |
| [Ba+2].[Cl-].[Cl-] | 95.1 |

###

target: novel L-glutamic acid oxidase (Streptomyces sp); assay: Substrate specificity of the novel enzyme, oxygen electrode method; settings: pH 6, read-out: Relative Activity (%) pH 6.0
Recorded measurements of activity at 10000 µM, one per entry

| mol_smiles | experimental_system | activity at 10000 µM |
| --- | --- | --- |
| N[C@@H](CCC(=O)O)C(=O)O | novel L-glutamic acid oxidase (Streptomyces sp) | 100% |
| NC(=O)C[C@H](N)C(=O)O | novel L-glutamic acid oxidase (Streptomyces sp) | < 0.1% |
| N[C@@H](Cc1ccccc1)C(=O)O | novel L-glutamic acid oxidase (Streptomyces sp) | < 0.1% |
| N[C@@H](Cc1c[nH]cn1)C(=O)O | novel L-glutamic acid oxidase (Streptomyces sp) | < 0.1% |
| C[C@@H](O)[C@H](N)C(=O)O | novel L-glutamic acid oxidase (Streptomyces sp) | < 0.1% |

###

Recorded measurements of activity at 2000 µM, one per entry
Target: immobilized L-glutamic acid oxidase (Streptomyces sp, UniProt Q8L3C7)
Construct: from the cultured product of an actinomycete newly isolated from a soil sample; made in house; host or cells: cultured product of the natural (non-recombinant) actinomycete strain; immobilized on a Cellophane membrane with glutaraldehyde
Sequence (Q8L3C7 15-390 limits assumed): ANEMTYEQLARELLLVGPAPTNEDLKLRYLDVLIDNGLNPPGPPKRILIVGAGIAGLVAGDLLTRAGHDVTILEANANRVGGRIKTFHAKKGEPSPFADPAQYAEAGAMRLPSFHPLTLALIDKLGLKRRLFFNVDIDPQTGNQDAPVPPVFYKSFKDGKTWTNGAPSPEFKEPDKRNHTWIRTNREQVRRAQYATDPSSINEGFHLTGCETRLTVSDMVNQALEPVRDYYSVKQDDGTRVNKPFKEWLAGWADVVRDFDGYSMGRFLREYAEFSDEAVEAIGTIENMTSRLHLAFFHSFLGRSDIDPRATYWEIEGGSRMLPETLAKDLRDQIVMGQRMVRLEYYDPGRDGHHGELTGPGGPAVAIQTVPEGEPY
Sequence (Q8L3C7 391-520 limits assumed): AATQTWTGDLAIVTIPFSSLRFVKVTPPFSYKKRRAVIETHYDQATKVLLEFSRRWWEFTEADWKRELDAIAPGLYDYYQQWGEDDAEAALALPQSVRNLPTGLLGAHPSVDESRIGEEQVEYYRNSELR
Sequence (Q8L3C7 521-701 limits assumed): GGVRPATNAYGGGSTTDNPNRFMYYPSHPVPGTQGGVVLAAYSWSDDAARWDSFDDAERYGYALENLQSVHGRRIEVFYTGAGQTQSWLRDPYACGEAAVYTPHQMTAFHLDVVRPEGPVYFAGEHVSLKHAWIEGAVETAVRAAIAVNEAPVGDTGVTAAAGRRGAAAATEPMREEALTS
Assay: Responses of the L-glutamic acid sensor of Example C1 to various amino acids
Format: biochemical, Streptomyces sp. X-119-6
Conditions: pH 5.5, read-out: Relative response (%)

| compound | activity at 2000 µM |
| --- | --- |
| N[C@@H](Cc1c[nH]c2ccccc12)C(=O)O [L-Tryptophan] | < 0.1% |
| CC(C)[C@H](N)C(=O)O [L-Valine] | < 0.1% |
| NCC(=O)O [Glycine] | < 0.1% |
| CSCC[C@H](N)C(=O)O [L-Methionine] | < 0.1% |
| NCCCC[C@H](N)C(=O)O [L-Lysine] | < 0.1% |
| NCCC[C@H](N)C(=O)O [L-Ornithine] | < 0.1% |
| NC(=O)CC[C@H](N)C(=O)O [L-Glutamine] | < 2% |
| N[C@@H](CS)C(=O)O [L-Cysteine] | < 0.1% |
| O=C(O)[C@@H]1CCCN1 [L-Proline] | < 0.1% |
| N=C(N)NCCC[C@H](N)C(=O)O [L-Arginine] | < 0.1% |
| C[C@H](N)C(=O)O [L-Alanine] | < 0.1% |
| CC(C)C[C@H](N)C(=O)O [L-Leucine] | < 0.1% |
| N[C@@H](CC(=O)O)C(=O)O [L-Aspartic acid] | < 1% |
| N[C@@H](CO)C(=O)O [L-Serine] | < 0.1% |
| CC[C@H](C)[C@H](N)C(=O)O [L-Isoleucine] | < 0.1% |
